experiment: CREB reporter modulators without forskolin, primary screen, cell-based, PC12, CRE-LacZ reporter, unstimulated (AID 1145); settings: no forskolin, luminescence, 4.5 h, higher = more signal, called active from +8 up or from −8 down
Hi there, I'd appreciate the recorded z-score for every entry that follows.
Give bare numbers.

Asked: Find the recorded z-score belonging to C[C@@H]1ON(c2ccc(C(=O)OC(C)(C)C)cc2)[C@H](c2ccc(Br)cc2)[C@H]1C(=O)N1C(=O)OC[C@H]1Cc1ccccc1 and report it.
Given back: 2.04

Asked: Find the recorded z-score belonging to NC(=O)NCC#Cc1ccc2c(c1)[C@]1(C(=O)N2)[C@H](c2ccc(O)cc2)N2[C@H](c3ccccc3)[C@H](c3ccccc3)OC(=O)[C@H]2[C@@H]1C(=O)Nc1nc2ccccc2s1 and report it.
Given back: -0.788

Asked: Find the recorded z-score belonging to C[C@]1(C(=O)NC2CC2)c2ccccc2C(=O)N(Cc2ccc(OC(F)(F)F)cc2)[C@H]1c1ccc(CO)cc1 and report it.
Given back: 1.64

// for each compound below, give its z-score
1. [N-]=[N+]=Nc1ccccc1[C@@H]1OC(c2ccc(OCCCO)cc2)=N[C@]1(CCS(=O)(=O)c1ccccc1)C(=O)NCCN1CCOCC1
2. COc1ccc([Si](C)(C)[C@H]2[C@H](CCn3cc([C@H](O)c4ccccc4)nn3)O[C@@]3(C(=O)N(Cc4ccc(N5CCOC5=O)cc4)c4ccccc43)[C@@H]2C)cc1
3. CCOC(=O)C1=CC[C@@H](c2cc(Cl)ccc2Cl)N(S(=O)(=O)c2ccc(C)cc2)[C@H]1c1ccc(OC)cc1
4. CC(=O)N1Cc2ccccc2C[C@]2(N=C(c3ccc(OCCCO)cc3)O[C@@H]2c2ccccc2)C1=O

Given back:
0.549
0.804
0.472
1.13
